Reported pKd values for the following binders.
# TARGET SYSTEM: T1, huCD3e-mFc (human, UniProt P07766 23-126)
# T1 construct: not shown: mFc, not described
# T1 sequence (P07766 23-126): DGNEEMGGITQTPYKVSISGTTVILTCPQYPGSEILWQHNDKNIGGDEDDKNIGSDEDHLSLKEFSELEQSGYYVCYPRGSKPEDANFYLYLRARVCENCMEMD
# ASSAY INFO: Pool 3 screen
pKd: −log10 of the molar value.

{"BINDER": "AC3829 (CD3.325) (scFv, V domains shown, Pool 3 format (remarks)) VH: EVQLVESGGGIVQPGGSLRLSCAASGFTFNTYAMNWVRQAPGKGLEWVGRIRTKTNNYATYYADSVKGRFTISRDDSKNTVYLQMNSLKTEDTAVYYCVRHENFGNSYVSWFAHWGQGTLVTVSS VL: ELVVTQEPSLTVSPGGTVTLTCRSSNGAVTSSNYANWVQQKPGQAPRGLIGGTNKRAPGTPARFSGSLDGGKAALTLSGVQPEDEAVYYCALWYPNLWVFGGGTKLTVL", "pKd": 8.00}
{"BINDER": "AC3840 (CD3.336) (scFv, V domains shown, Pool 3 format (remarks)) VH: EVQLVESGGGIVQPGGSLRLSCAASGFTFNTYAMNWVRQAPGKGLEWVGRIRTKTNDYATYYADSVKGRFTISRDDSKNTAYLQMNSLKTEDTAVYYCVRHENFGNSYVSWFAHWGQGTLVTVSS VL: ELVVTQEPSLTVSPGGTVTLTCRSSNGAVTSSNYANWVQQKPGQAPRGLIGGTNKRAPGTPARFSGSLLEGKAALTLSGVQPEDEAVYYCALWYPNLWVFGGGTKLTVL", "pKd": 7.49}
{"BINDER": "AC3806 (CD3.302) (scFv, V domains shown, Pool 3 format (remarks)) VH: EVQLVESGGGIVQPGGSLRLSCAASGFTFSTYAMNWVRQAPGKGLEWVGRIRTKRNDYATYYADSVKGRFTISRDDSKNTAYLQMNSLKTEDTAVYYCVRHENFGNSYVSWFAHWGQGTLVTVSS VL: ELVVTQEPSLTVSPGGTVTLTCRSSNGAVTSSNYANWVQQKPGQAPRGLIGGTNKRAPGTPARFSGSALGGKAALTLSGVQPEDEAVYYCALWYPNLWVFGGGTKLTVL", "pKd": 8.29}
{"BINDER": "AC3813 (CD3.309) (scFv, V domains shown, Pool 3 format (remarks)) VH: EVQLVESGGGIVQPGGSLRLSCAASGFTFSTYAMNWVRQAPGKGLEWVGRIRTKRNDYATYYADSVKGRFTISRDDSKNTAYLQMNSLKTEDTAVYYCVRHENFGNSYVSWFAHWGQGTLVTVSS VL: ELVVTQEPSLTVSPGGTVTLTCRSSNGAVTSSNYANWVQQKPGQAPRGLIGGTNKRAPGTPARFSGSLLEGKAALTLSGVQPEDEAVYYCALWYPNLWVFGGGTKLTVL", "pKd": 8.24}
{"BINDER": "AC3826 (CD3.322) (scFv, V domains shown, Pool 3 format (remarks)) VH: EVQLVESGGGIVQPGGSLRLSCAASGFTFNTYAMNWVRQAPGKGLEWVGRIRTKTNNYATYYADSVKGRFTISRDDSKNTVYLQMNSLKTEDTAVYYCVRHENFGNSYVSWFAHWGQGTLVTVSS VL: ELVVTQEPSLTVSPGGTVTLTCRSSNGAVTSSNYANWVQQKPGQAPRGLIGGTNKRAPGTPARFSGSLNGGKAALTLSGVQPEDEAVYYCALWYPNLWVFGGGTKLTVL", "pKd": 8.15}
